# Measured Target: RAR α (Homo sapiens, UniProt P10276)
# Sequence (P10276 whole entry, species assumed): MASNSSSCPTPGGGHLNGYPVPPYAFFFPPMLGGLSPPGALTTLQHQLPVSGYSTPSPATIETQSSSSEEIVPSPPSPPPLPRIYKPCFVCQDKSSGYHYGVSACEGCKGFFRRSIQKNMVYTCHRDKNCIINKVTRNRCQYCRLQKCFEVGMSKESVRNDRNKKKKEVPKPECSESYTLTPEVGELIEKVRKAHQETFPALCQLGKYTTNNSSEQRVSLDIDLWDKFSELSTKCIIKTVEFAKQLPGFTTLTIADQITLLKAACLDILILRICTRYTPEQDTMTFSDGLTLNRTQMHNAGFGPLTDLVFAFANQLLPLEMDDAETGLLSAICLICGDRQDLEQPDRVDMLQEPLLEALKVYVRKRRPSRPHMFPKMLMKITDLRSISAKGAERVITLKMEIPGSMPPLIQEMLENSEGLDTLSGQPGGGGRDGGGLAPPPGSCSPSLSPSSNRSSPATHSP
# Method: Ligand binding assay, retinoic acid receptor α
# Measurement Parameters: first value of α/β/γ cell
Observed Property: IC50

Report IC50 for every entry below.
1. CCCCCC(/C=C/c1ccc(C(=O)O)cc1)c1ccc2c(c1)OCCC2(C)C (racemic)
2. CCCCCC(COc1ccc(C(=O)O)cc1)c1ccc2c(c1)N(C)CCC2(C)C (racemic)
3. CCCCCC(/C=C/c1ccc(C(=O)O)cc1)c1ccc2c(c1)N(CC)CCC2(C)C (racemic)
4. CCCCCC(/C=C/c1ccc(C(=O)O)cc1)c1ccc2c(c1)N(C)CCC2(C)C (racemic)
5. CCCCCC(/C=C/c1ccc(C(=O)O)cc1)c1ccc2c(c1)NCCC2(C)C (racemic)
6. CCCCCC(COc1ccc(C(=O)O)cc1)c1ccc2c(c1)N(CC)CCC2(C)C (racemic)
7. CCCCCC(/C=C/c1ccc(C(=O)O)cc1F)c1ccc2c(c1)N(C)CCC2(C)C (racemic)
8. CCCCCC(COc1ccc(C(=O)O)cc1)c1ccc2c(c1)SCCC2(C)C (racemic)

**A:**
1. 6920 nM
2. 3170 nM
3. 1280 nM
4. 1460 nM
5. 5140 nM
6. 2520 nM
7. 6290 nM
8. 2070 nM

Record IC50 per entry; entries follow.
1. CCCCCC(COc1ccc(C(=O)O)cc1)c1ccc2c(c1)OCCC2(C)C (racemic)
2. CCCCCC(/C=C/c1ccc(C(=O)O)cc1)c1ccc2c(c1)SCCC2(C)C (racemic)
3. CCC(/C=C/c1ccc(C(=O)O)cc1)c1ccc2c(c1)N(C)CCC2(C)C (racemic)

**A:**
1: 3920 nM; 2: 1580 nM; 3: 3390 nM

====

# Measured Target: RAR γ (Homo sapiens)
# Sequence (P13631 1-454): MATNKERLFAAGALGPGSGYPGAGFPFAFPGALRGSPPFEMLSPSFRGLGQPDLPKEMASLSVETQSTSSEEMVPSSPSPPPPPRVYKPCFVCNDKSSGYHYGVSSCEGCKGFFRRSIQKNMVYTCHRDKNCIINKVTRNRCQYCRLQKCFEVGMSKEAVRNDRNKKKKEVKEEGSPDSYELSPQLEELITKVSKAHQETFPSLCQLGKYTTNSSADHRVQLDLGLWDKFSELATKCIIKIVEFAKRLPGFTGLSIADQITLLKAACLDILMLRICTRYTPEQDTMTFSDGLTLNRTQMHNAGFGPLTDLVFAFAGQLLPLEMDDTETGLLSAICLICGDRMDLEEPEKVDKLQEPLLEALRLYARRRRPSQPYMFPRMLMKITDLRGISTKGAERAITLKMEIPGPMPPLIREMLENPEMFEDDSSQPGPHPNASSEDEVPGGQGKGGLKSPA
# Method: Ligand binding assay, retinoic acid receptor γ
# Measurement Parameters: third value of α/β/γ cell
Range-based classes on measured IC50: b0 (below 3000 nM), b1 (3000 nM to below 4000 nM), b2 (4000 nM or more)

CCCCCC(/C=C/c1ccc(C(=O)O)cc1)c1ccc2c(c1)N(C)CCC2(C)C (racemic) = b0

**Q:** Hi there! Could you help me figure out the category for CCCCCC(/C=C/c1ccc(C(=O)O)cc1)c1ccc2c(c1)NCCC2(C)C (racemic) please?
**A:** b2

**Q:** Please classify: CCC(/C=C/c1ccc(C(=O)O)cc1)c1ccc2c(c1)N(C)CCC2(C)C (racemic)
**A:** b2

====

# Measured Target: RAR γ (Homo sapiens, UniProt P13631)
# Method: Ligand binding assay, retinoic acid receptor γ
# Measurement Parameters: third value of α/β/γ cell
Observed Property: IC50 (nM)
Answers are plain numbers, in nM.

Below are worked cases with known answers.
CCCCCC(/C=C/c1ccc(C(=O)O)cc1F)c1ccc2c(c1)N(C)CCC2(C)C (racemic) = 4060
CCCCCC(/C=C/c1ccc(C(=O)O)cc1)c1ccc2c(c1)SCCC2(C)C (racemic) = 2330
CCCCCC(/C=C/c1ccc(C(=O)O)cc1)c1ccc2c(c1)OCCC2(C)C (racemic) = 3870
CCCCCC(COc1ccc(C(=O)O)cc1)c1ccc2c(c1)N(C)CCC2(C)C (racemic) = 5440
CCCCCC(/C=C/c1ccc(C(=O)O)cc1)c1ccc2c(c1)N(CC)CCC2(C)C (racemic) = 1000

Please state, for each entry, its recorded IC50.
1. CCCCCC(COc1ccc(C(=O)O)cc1)c1ccc2c(c1)SCCC2(C)C (racemic)
2. CCCCCC(COc1ccc(C(=O)O)cc1)c1ccc2c(c1)N(CC)CCC2(C)C (racemic)
3. CCCCCC(COc1ccc(C(=O)O)cc1)c1ccc2c(c1)OCCC2(C)C (racemic)

**A:**
3230
3600
3770
